For hCA XII (Homo sapiens), measured Ki is reported for the entries below.
quantity: Ki (nM)

For orientation, consider the following solved cases.
{"compound": "NS(=O)(=O)c1ccc2c(c1)CCN2C(=O)c1ccccc1[N+](=O)[O-] [Compound 4o, 1-(2-Nitrobenzoyl)indoline-5-sulfonamide]", "unit.of.measurement": "nM", "measured.value": 120}
{"compound": "NS(=O)(=O)c1ccc2c(c1)CCN2C(=O)c1ccccc1 [Compound 4a, 1-Benzoylindoline-5-sulfonamide]", "unit.of.measurement": "nM", "measured.value": 258}

a: NS(=O)(=O)c1ccc2c(c1)CCN2C(=O)c1ccc(Cl)c(Cl)c1 [Compound 4h]
b: NS(=O)(=O)c1ccc2c(c1)CCN2C(=O)c1ccc([N+](=O)[O-])cc1 [Compound 4p, 1-(4-Nitrobenzoyl)indoline-5-sulfonamide]
c: NS(=O)(=O)c1ccc2c(c1)CCN2C(=O)c1c(F)c(F)c(F)c(F)c1F [Compound 4e]
Inquiry: hey, can you rank those compounds up there by Ki? biggest number first please Please express your ranking as an ordered list of the labels.
Reply text: b, c, a

----------
target: hCA IX (Homo sapiens, UniProt Q16790)
pKi: −log10 of the molar value.
quantity: pKi

Field: example entries. Status: answers known.
{"compound": "NS(=O)(=O)c1ccc2c(c1)CCN2C(=O)c1ccncc1 [Compound 4q, 1-Isonicotinoylindoline-5-sulfonamide]", "pKi": 5.62}
{"compound": "NS(=O)(=O)c1ccc2c(c1)CCN2C(=O)c1ccc(F)cc1 [Compound 4c]", "pKi": 5.65}

P: CSc1ccc(C(=O)N2CCc3cc(S(N)(=O)=O)ccc32)cc1 [Compound 4n]
Q: COc1ccc(C(=O)N2CCc3cc(S(N)(=O)=O)ccc32)c(OC)c1 [Compound 4l]
Inquiry: # return whichever of P and Q has the smaller pKi I would appreciate it if you answered with the label of your choice.
Reply text: P

----------
pKi: −log10 of the molar value.
pKi values recorded for hCA II (Homo sapiens, UniProt P00918)
quantity: pKi

{"compound": "NS(=O)(=O)c1ccc2c(c1)CCN2C(=O)c1ccc(F)cc1 [Compound 4c]", "target": "hCA II (Homo sapiens, UniProt P00918)", "quantity": "pKi", "measured.value": 8.02}

I: NS(=O)(=O)c1ccc2c(c1)CCN2C(=O)c1ccccc1[N+](=O)[O-] [Compound 4o, 1-(2-Nitrobenzoyl)indoline-5-sulfonamide]
II: CSc1ccc(C(=O)N2CCc3cc(S(N)(=O)=O)ccc32)cc1 [Compound 4n]
Inquiry: Form: Entry with minimum pKi (choose one): I / II Select an item and report its label.
Reply text: II
(II: 8.03, I: 8.35)

----------
target: hCA I (Homo sapiens, UniProt P00915)
Construct: made in house
Sequence (P00915 whole entry): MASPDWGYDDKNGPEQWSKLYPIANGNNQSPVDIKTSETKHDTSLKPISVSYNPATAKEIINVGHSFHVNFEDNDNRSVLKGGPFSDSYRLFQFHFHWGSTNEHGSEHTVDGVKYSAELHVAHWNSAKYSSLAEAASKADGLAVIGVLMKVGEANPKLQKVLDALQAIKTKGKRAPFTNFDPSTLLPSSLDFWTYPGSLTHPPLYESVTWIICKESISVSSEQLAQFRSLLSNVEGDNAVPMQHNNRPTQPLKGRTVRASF
assay.comment: CA inhibition, stopped-flow CO2 hydration assay
Assay type: biochemical
test.context: stopped-flow technique; mean from three assays
quantity: Ki (nM)

{"molecule": "NS(=O)(=O)c1ccc2c(c1)CCN2C(=O)c1ccccc1[N+](=O)[O-] [Compound 4o, 1-(2-Nitrobenzoyl)indoline-5-sulfonamide]", "quantity": "Ki", "measured.value": 83.4}

A: NS(=O)(=O)c1ccc2c(c1)CCN2C(=O)c1ccc([N+](=O)[O-])cc1 [Compound 4p, 1-(4-Nitrobenzoyl)indoline-5-sulfonamide]
B: NS(=O)(=O)c1ccc2c(c1)CCN2C(=O)c1ccc(Cl)cc1
Inquiry: Between A and B , whose measured Ki reads higher? Pick one and reply with its label.
Reply text: B
(B: 242 nM, A: 60.5 nM)

----------
Notes on Ki obtained with hCA XII (Homo sapiens).
Sequence (O43570 25-354): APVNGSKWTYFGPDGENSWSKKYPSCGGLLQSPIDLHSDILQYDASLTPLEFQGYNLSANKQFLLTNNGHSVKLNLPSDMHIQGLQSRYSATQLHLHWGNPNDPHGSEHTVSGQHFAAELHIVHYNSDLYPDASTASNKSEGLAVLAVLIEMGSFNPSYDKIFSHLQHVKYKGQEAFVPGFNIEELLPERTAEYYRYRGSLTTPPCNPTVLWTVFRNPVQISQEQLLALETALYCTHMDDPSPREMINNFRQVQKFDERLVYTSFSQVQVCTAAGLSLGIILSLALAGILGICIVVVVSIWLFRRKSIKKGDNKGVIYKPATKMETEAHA

// returns Ki for NS(=O)(=O)c1ccc2c(c1)CCN2C(=O)c1ccncc1 [Compound 4q, 1-Isonicotinoylindoline-5-sulfonamide] with hCA XII (Homo sapiens); value = > 10 µM

Record NS(=O)(=O)c1ccc2c(c1)CCN2C(=O)C1CCCCC1 ; system hCA XII (Homo sapiens); Ki = > 10 µM

Test item NS(=O)(=O)c1ccc2c(c1)CCN2C(=O)CC1CCCC1 ; hCA XII (Homo sapiens); reported Ki was > 10 µM
